Assign Midpoint Transition Temperature in Presence of Ligand, Tm to each entry below.
# assaySystem: sensing domain of C. jejuni Tlp3 (Campylobacter jejuni, UniProt Q0P864)
# Sequence (Q0P864 41-290): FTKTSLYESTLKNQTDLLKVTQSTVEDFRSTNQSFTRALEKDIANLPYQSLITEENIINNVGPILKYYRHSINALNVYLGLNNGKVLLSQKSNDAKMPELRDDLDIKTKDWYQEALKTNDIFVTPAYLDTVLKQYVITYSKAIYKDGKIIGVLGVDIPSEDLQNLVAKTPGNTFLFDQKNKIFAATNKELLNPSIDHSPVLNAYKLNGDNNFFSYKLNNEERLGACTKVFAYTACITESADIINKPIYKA
# measurementProtocol: Thermal shift assay
# Type: binding
# conditionSet: 10 μM Tlp3, ligand 3 mM (L-valine 10 mM), pH 8.0
Your answer is read as °C, so omit the unit and give the number.

In: Any idea what its Midpoint Transition Temperature in Presence of Ligand, Tm is? The molecule is CC(C)[C@H](N)C(=O)O
Out: 64.6

In: Now consider CCC[C@H](N)C(=O)O .
Out: 63.7

In: Now consider CC(C)C[C@H](N)C(=O)O .
Out: 64.2

In: Now consider CC[C@H](C)[C@H](N)C(=O)O .
Out: 64.5
